Experimental system: Calmodulin-1 (Homo sapiens)
Test summary: CALM1 binders on microarrays, EGTA buffer, profiling panel, biochemical, small-molecule microarray, Cy5-labelled CALM1 (AID 1111);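 also: labelled calmodulin applied in Tris saline Tween buffer holding calcium plus EGTA and DTT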
Condition notes: Cy5-CALM1 binding fluorescence, higher = more signal
# binarize composite z-score: threshold 1 inclusive, high side satisfied, low side not satisfied

Recorded results for 5 compounds are shown here.
Compound	Experimental system	Answer label
COCCOC(=O)N1C(=O)[C@@]2(c3cc(C#Cc4ccc(OC)cc4)ccc31)[C@H](C(=O)NC[C@H](O)c1ccccc1)[C@H]1C(=O)O[C@H](c3ccccc3)[C@H](c3ccccc3)N1[C@@H]2c1ccc(OCCO)cc1	Calmodulin-1 (Homo sapiens)	satisfied
CCCCCCCCCCC(O)C1C=CC2C(=O)N(c3ccccc3)C(=O)C2N1Nc1ccccc1F (stereo not drawn)	Calmodulin-1 (Homo sapiens)	satisfied
COCC(=C=CC[C@@H](O)c1cccc(OCCO)c1)CCO	Calmodulin-1 (Homo sapiens)	not satisfied
CC1(C)C(=O)C(c2ccccc2)=C2CN3C(=O)N(CCc4ccccc4)C(=O)C3(Cc3ccc(C(F)(F)F)cc3)C=C21 (stereo not drawn)	Calmodulin-1 (Homo sapiens)	satisfied
CCCNC(=O)[C@@]1(Sc2ccc(C)cc2)CC(=O)N(C2CCCCC2)[C@@H]1c1ccc(CO)cc1I	Calmodulin-1 (Homo sapiens)	satisfied

// inclusive: composite z-score at least 1? input: CCCCC(=C=CC[C@H](O)c1ccc(OCCO)cc1)C[C@H](O)c1cc(Cl)cc(Cl)c1O
not satisfied

// inclusive: composite z-score at least 1? input: O=C(N1CCOCC1)[C@@]1(CCS(=O)(=O)c2ccccc2)N=C(c2ccc(OCCCO)cc2)O[C@H]1c1ccccc1
satisfied

// inclusive: composite z-score at least 1? input: CC(C)[C@H]1NC(=O)[C@@]23C(=O)N[C@@H](Cc4ccccc4)C2[C@H](C)[C@@]2(C)O[C@H]2C3/C=C/C/C=C\CNC(=O)[C@H](Cc2ccccc2)NC1=O (stereo partly drawn)
not satisfied
